- System: 454973-116-R2-J3-PDC spheroids, percent test/control viability;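 note: spheroids exposed to compounds for 7 days before readout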
- assay.info: Anticancer human tumor 454973-116-R2-J3-PDC patient-derived pancreatic carcinoma cell line growth inhibition [CLK]
- assay.setup: second compound 1 µM; first compound 1 µM; stronger effect = lower value; spheroids with HUVEC and MSC
measured.endpoint: viability, T/C (%)
Your answer is read as %, so omit the unit and give the number.

compound | measured.endpoint | scale.unit | obs.value
O=C(c1cc(Cc2n[nH]c(=O)c3ccccc23)ccc1F)N1CCN(C(=O)C2CC2)CC1 + CNC(=O)c1ccc(Nc2nc(OC3CCCC3)c3c(-c4ccc5nc(C)oc5c4)c[nH]c3n2)c(OC)c1 | viability, T/C | % | 33.3
O=c1[nH]cc(F)c(=O)[nH]1 + CN1CCN(c2cc(C(=O)Nc3cc4cc(-c5cnn(C)c5)ccc4cn3)ccn2)CC1 | viability, T/C | % | 0.06
CC(Nc1ccc2c(c1)OCCn1cc(N3C(=O)OCC3C(F)F)nc1-2)C(N)=O (stereo unspecified) + CN1CCN(c2cc(C(=O)Nc3cc4cc(-c5cnn(C)c5)ccc4cn3)ccn2)CC1 | viability, T/C | % | 0.1
C=CC(=O)N1CCN(c2nc(=O)n(-c3c(C)ccnc3C(C)C)c3nc(-c4c(O)cccc4F)c(F)cc23)C(C)C1 (stereo unspecified) + CN1CCN(c2cc(C(=O)Nc3cc4cc(-c5cnn(C)c5)ccc4cn3)ccn2)CC1 | viability, T/C | % | 0.14
CCc1c2c(nc3ccc(O)cc13)-c1cc3c(c(=O)n1C2)COC(=O)[C@]3(O)CC + CNC(=O)c1ccc(Nc2nc(OC3CCCC3)c3c(-c4ccc5nc(C)oc5c4)c[nH]c3n2)c(OC)c1 | viability, T/C | % | 1.14

Could you now look at the following compound, please?
Tell me the measured viability, T/C of CC(Nc1ccc2c(c1)OCCn1cc(N3C(=O)OCC3C(F)F)nc1-2)C(N)=O (stereo unspecified) + CNC(=O)c1ccc(Nc2nc(OC3CCCC3)c3c(-c4ccc5nc(C)oc5c4)c[nH]c3n2)c(OC)c1 , please.
19.7

Data origin, for the record: PubChem BioAssay AID2060618
